Test system: mammalian cell viability, cytotoxicity counter-screen
Assay: mammalian cell cytotoxicity, dose response, cytotoxicity control for M. tuberculosis growth inhibitor project, purified and synthesized compounds, set 2 (AID 504562)
Residues, ends and D or L forms follow the SMILES beside them. *: point of attachment. Cbz = O=C(OCc1ccccc1)*
MEASURED_METRIC: CC50

Answered cases to consult:
>  <COMPOUND>
Cc1cccc(/C=C/C(=O)c2ccc([N+](=O)[O-])o2)c1

>  <CC50>
53.1 µM

$$$$
>  <COMPOUND>
Cc1ccc2c(c1)c(C1=c3ccccc3=NC1=O)c(O)n2C

>  <CC50>
14.3 µM

$$$$
>  <COMPOUND>
CC(C)NC(=O)c1sc(=S)n2c1[nH]c(=O)c1ccc(C(=O)NCCc3ccc(Cl)cc3)cc12

>  <CC50>
68.8 µM

$$$$
>  <COMPOUND>
COC(=O)c1cc(=O)n(-c2ccc(F)cc2)c(=Nc2ccc(F)cc2)s1

>  <CC50>
20.8 µM

$$$$
>  <COMPOUND>
S=c1nc[nH]c2nc[nH]c12

>  <CC50>
38.1 µM

$$$$
>  <COMPOUND>
COC(=O)C(Nc1nc(SCC(=O)NC2CCCCC2)nc2ccccc12)c1ccccc1 (stereo unspecified)

>  <CC50>
88 µM

$$$$
>  <COMPOUND>
CCOC(=O)CNC(=O)[C@H](Cc1ccccc1)NC(=O)OCc1ccccc1 (Cbz-Phe-Gly-OEt)

>  <CC50>
68.9 µM

$$$$
>  <COMPOUND>
CNc1nc(SCc2ccccc2Cl)nc2c1CCCC2

>  <CC50>
46.1 µM

$$$$

List reported CC50 for each of these compounds:
1. CCOC(=O)c1ccc(NC(=O)Cn2ncc(Cl)c(Cl)c2=O)cc1
2. Cc1ccc(C(=O)N/N=C(/CC(=O)c2cccs2)C(F)(F)F)cc1
3. CCC(C)Nc1ccc(NC(C)CC)cc1 (stereo unspecified)

Result:
7.7 µM
31.7 µM
16.5 µM
